The measurements presented in this section are drawn from the supplement of paper PMC4862054.

System: MDA-MB-468
Experiment: normalised response (% of control), CellTiter-Glo; higher = more viable cells (100 = DMSO, 0 = benzethonium chloride kill control)
Details: incubation time: 72 h
outcome measure: normalised response (%)
Give a bare numeral; the unit % is implied.

Please review the following examples before continuing.
compound	target desc	val
CCC1(c2ccc(N)cc2)CCC(=O)NC1=O (stereo not given) [Aminoglutethimide] (100 nM)	MDA-MB-468	100
COc1cc2ncnc(Nc3ccc(F)c(Cl)c3)c2cc1NC(=O)/C=C/CN1CCCCC1 [Dacomitinib] (10 nM)	MDA-MB-468	78.8
C=C(c1ccc(C(=O)O)cc1)c1cc2c(cc1C)C(C)(C)CCC2(C)C [Bexarotene] (100 nM)	MDA-MB-468	104
C[C@]12CC[C@@H]3c4ccc(O)cc4C[C@@H](CCCCCCCCC[S+]([O-])CCCC(F)(F)C(F)(F)F)[C@H]3[C@@H]1CC[C@@H]2O (stereo not given in full) [Fulvestrant] (10 nM)	MDA-MB-468	108
NC(=O)Nc1cc(-c2cccc(F)c2)sc1C(=O)N[C@H]1CCCNC1 [AZD7762] (10 nM)	MDA-MB-468	102

// O=C(CCCCCCC(=O)Nc1ccc([C@H]2O[C@@H](CSc3nc(-c4ccccc4)c(-c4ccccc4)o3)C[C@@H](c3ccc(CO)cc3)O2)cc1)NO [Tubacin] (100 nM) : normalised response value = 95.3

For record O=C(O)c1ccc(-c2c[nH]c3ncc(-c4ccccc4)cc23)cc1C1CCCC1 (100 nM) the listed normalised response is 90.6

Short answer for C#Cc1cccc(Nc2ncnc3cc(OCCOC)c(OCCOC)cc23)c1 [Erlotinib] (100 nM) : normalised response was 90.8

normalised response reported for this compound CC(=O)Nc1ccc(C(=O)Nc2ccccc2N)cc1 [Tacedinaline] (10 nM) : 104

Reported normalised response for CN[C@@H]1C[C@H]2O[C@@](C)([C@@H]1OC)n1c3ccccc3c3c4c(c5c6ccccc6n2c5c31)C(=O)N[C@H]4O [UCN-01] (100 nM) was 48.2
